Target: MERTK (UniProt Q12866)
Sequence (Q12866 whole entry, looked up): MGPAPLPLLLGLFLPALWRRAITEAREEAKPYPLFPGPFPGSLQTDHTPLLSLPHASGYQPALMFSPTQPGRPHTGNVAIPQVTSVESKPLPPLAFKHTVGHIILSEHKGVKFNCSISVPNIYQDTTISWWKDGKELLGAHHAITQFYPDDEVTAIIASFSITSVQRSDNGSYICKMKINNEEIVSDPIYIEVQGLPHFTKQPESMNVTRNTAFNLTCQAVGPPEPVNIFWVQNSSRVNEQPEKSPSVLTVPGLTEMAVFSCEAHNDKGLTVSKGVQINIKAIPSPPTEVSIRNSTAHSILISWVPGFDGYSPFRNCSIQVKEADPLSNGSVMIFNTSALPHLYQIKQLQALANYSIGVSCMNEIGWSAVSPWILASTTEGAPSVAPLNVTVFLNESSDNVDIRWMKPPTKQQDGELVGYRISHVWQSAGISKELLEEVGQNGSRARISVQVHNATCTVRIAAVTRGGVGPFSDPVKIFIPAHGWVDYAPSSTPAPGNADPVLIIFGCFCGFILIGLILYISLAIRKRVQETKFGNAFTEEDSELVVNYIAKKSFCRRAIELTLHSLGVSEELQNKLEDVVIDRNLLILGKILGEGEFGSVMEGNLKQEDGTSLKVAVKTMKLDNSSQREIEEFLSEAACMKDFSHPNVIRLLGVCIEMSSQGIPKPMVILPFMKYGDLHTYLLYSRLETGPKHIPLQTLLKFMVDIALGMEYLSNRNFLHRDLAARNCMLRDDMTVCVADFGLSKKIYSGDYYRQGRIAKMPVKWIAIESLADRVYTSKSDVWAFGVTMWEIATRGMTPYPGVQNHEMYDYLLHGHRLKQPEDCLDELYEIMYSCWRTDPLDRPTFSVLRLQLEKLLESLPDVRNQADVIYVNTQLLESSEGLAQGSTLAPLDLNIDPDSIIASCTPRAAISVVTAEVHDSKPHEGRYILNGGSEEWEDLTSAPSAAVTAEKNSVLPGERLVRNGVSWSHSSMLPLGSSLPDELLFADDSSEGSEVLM
Experiment: phosphorylation enrichment, bacterial display (enrichment ratio); higher = better substrate or ligand; peptides without Tyr show the background;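 also: 11-residue human phosphosite peptides and single-mutation variants displayed on the E. coli surface, counted by deep sequencing, each peptide's frequency after selection divided by its frequency in the unselected input library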;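 also: frequency after pTyr selection over input frequency; kinase dosed for 20-30% of maximal phosphorylation in three min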
Recorded phosphorylation enrichment for the following sequences
Answer with a bare number; do not write a unit.

Sequence string | phosphorylation enrichment
DPHKIFEFVNS [IRF3_Y107_Y107F] | 0.412

[Q] What reported phosphorylation enrichment corresponds to NTQRPYFKGGG [TYROBP_Y111_YF] on MERTK (UniProt Q12866)?
[A] 0.454

[Q] Again, but for PFTDPYFDFEI [ZC3H18_Y371_A368T_YF]
[A] 0.898

[Q] Again, but for VDLIVYLRTNP [TK2_Y181]
[A] 0.328

[Q] Again, but for ALLTKYSHSSM [DSCC1_Y374]
[A] 0.436

[Q] Again, but for PVKSEYSSIKL [NPC2_Y119_P120S]
[A] 0.5

[Q] Again, but for HGEAFYSEVKA [PAK5_Y182_P187A_YF]
[A] 8.27

[Q] Again, but for MFCASYDTKQE [F10_Y407_G406S]
[A] 0.552

[Q] Again, but for EKKKYYDTKIE [CASP5_Y104]
[A] 0.443

###

Biological target: Hck (UniProt P08631)
Sequence (P08631 whole entry, looked up): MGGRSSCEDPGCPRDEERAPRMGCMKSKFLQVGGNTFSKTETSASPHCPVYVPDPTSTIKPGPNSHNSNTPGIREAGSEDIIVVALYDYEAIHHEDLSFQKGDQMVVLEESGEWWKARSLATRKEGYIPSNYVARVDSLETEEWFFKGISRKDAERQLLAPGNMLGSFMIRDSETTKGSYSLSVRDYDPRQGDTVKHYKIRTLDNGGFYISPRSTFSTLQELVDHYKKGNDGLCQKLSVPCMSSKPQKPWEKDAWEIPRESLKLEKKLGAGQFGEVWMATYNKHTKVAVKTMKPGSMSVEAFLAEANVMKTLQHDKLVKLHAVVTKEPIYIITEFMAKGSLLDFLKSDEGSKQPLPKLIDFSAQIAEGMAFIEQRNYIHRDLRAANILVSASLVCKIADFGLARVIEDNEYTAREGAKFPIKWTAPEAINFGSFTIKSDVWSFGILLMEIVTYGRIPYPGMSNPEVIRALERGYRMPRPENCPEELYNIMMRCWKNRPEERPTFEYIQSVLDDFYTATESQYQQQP
Assay: phosphorylation enrichment, bacterial display (enrichment ratio); higher = better substrate or ligand; peptides without Tyr show the background
Recorded endpoint: phosphorylation enrichment
Answer with a bare number; do not write a unit.

Some sequences with recorded phosphorylation enrichment:
Sequence string | phosphorylation enrichment
YKWAVYCIIGR [NUP93_Y391_R388W] | 1.29
LSVEIHDRREF [ITGB7_Y753_Y753H_YF] | 0.814
FFNSEYGELSE [FLT4_Y1337_YF] | 0.791
TNIKRYHIAKV [HARS1_Y150] | 0.264
KLFFIYTPGTT [SLC27A4_Y245_S247P_YF] | 0.509
LQFRNYQQLFD [MAN2A1_Y442_K440R] | 0.771
AGVIIYTSRFQ [PFAS_Y538_A535V] | 0.664
DFFDLYGGEKF [PTPN11_Y66_YF] | 3.08
TQFWRYFAGNL [SLC25A5_Y112_L111R] | 0.493
DPEATYTTSGS [EPHA2_Y772_G777S] | 0.598

[Q] I have this sequence here, RMQLPYDSTWE [PDGFRB_Y589_P584R] , and I need its recorded phosphorylation enrichment.
[A] 0.764

[Q] Again, but for ADSLRYIYPKL [EIF2B3_Y92]
[A] 0.386

[Q] Again, but for ATDLAYFLVRK [ASL_Y375_YF]
[A] 0.686

[Q] Again, but for TYEPNYGTVKQ [RAPGEF6_Y1447]
[A] 1.66

[Q] Again, but for WASGIYFVPKG [APBB1IP_Y340_R335W_YF]
[A] 7.16

[Q] Again, but for PGNIVYSSLCG [BCOR_Y90]
[A] 5.25

###

Target: EPHB2 (UniProt P29323)
Sequence (P29323 whole entry, looked up): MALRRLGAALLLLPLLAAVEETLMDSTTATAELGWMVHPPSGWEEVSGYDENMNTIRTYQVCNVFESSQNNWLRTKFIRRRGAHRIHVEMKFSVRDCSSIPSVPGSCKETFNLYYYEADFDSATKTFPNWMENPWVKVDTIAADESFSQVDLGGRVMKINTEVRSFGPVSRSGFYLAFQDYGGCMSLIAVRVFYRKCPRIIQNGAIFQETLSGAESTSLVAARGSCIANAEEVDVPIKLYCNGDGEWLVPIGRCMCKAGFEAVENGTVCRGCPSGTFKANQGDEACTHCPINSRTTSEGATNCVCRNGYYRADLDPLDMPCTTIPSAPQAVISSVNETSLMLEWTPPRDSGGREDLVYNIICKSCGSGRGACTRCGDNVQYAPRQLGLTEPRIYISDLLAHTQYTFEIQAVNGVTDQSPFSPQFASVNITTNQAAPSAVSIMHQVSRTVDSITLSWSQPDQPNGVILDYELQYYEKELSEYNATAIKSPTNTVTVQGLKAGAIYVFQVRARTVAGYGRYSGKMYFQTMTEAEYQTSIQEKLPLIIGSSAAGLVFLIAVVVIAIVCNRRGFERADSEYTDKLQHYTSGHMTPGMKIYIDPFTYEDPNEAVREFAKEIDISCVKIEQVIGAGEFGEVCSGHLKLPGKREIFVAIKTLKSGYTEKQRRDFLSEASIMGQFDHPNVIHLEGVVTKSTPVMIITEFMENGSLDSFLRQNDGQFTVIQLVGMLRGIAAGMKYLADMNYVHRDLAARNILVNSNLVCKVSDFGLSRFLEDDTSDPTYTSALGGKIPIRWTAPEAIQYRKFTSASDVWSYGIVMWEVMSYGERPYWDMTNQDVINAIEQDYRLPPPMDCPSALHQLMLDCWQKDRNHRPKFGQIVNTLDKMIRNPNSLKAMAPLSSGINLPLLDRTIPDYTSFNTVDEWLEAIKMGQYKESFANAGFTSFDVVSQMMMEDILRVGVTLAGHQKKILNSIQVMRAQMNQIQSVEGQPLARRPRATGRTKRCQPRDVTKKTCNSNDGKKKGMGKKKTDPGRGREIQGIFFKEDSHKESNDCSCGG
Assay: phosphorylation enrichment, bacterial display (enrichment ratio); higher = better substrate or ligand; peptides without Tyr show the background
Recorded endpoint: phosphorylation enrichment

Sequence string | phosphorylation enrichment
AFEQQYSPIPR [NOX1_Y373] | 0.512

[Q] I have this sequence here, VCDSDYSASRW [LRP5_Y1552] , and I need its recorded phosphorylation enrichment.
[A] 0.877

[Q] Again, but for CTAIHYNFMCN [TP53_Y234_T231A_YF]
[A] 0.526

[Q] Again, but for ANNEYYFRVCA
[A] 0.759

[Q] Again, but for PIPAAYNRFDQ [CDC73_Y290_YF]
[A] 0.426

[Q] Again, but for FADIAYNYRQG [PAH_Y166_H170Q]
[A] 0.454

[Q] Again, but for LSNFNYEQRGA [API5_Y497_G493S]
[A] 1.15

[Q] Again, but for SVTCTSSPALN [TP53_Y126_Y126S]
[A] 0.675

[Q] Again, but for MGRVKYGAFIN [GLB1_Y485_N484K_YF]
[A] 0.376

[Q] Again, but for TSNQEYLDVSM [FGFR1_Y766_L769V]
[A] 0.681

[Q] Again, but for ADKAAYLQSMN [MYH2_Y389_L393M]
[A] 0.419

[Q] Again, but for QEITTYRRLLE [KRT14_Y415_A413T]
[A] 0.548

[Q] Again, but for SHNKYYMLVAH [MFSD8_Y134_R139H]
[A] 0.651

[Q] Again, but for VKRNRYKDILP [PTPN12_Y64_K61R]
[A] 0.695

[Q] Again, but for LKRIAYFLCLR [LGI1_Y21_L26R]
[A] 0.413

[Q] Again, but for QKPLDYYRVNL [GALE_Y104]
[A] 2.35

[Q] Again, but for TIQMMYGCDVG [HLA-A_Y123_I121M]
[A] 0.555

###

Target: Hck (UniProt P08631)
Assay: phosphorylation enrichment, bacterial display (enrichment ratio); higher = better substrate or ligand; peptides without Tyr show the background
Recorded phosphorylation enrichment for the following sequences

Some sequences with recorded phosphorylation enrichment:
Sequence string | Recorded endpoint | Result
SDMGQYQCLVF [AXL_Y115_T112M] | phosphorylation enrichment | 3.14
ESKKHYGYSLY [ANXA3_Y295_F291S] | phosphorylation enrichment | 0.646
SLHPGYNFRFA [P2RX7_Y291_Y288H_YF] | phosphorylation enrichment | 0.432
YAADYYKLLGN [ROR2_Y646] | phosphorylation enrichment | 0.808
DRLANYLEKVR [KRT40_Y103_S102N] | phosphorylation enrichment | 0.38
ILGRTHFVNHE [NEDD4_Y627_Y627H_YF] | phosphorylation enrichment | 0.451

[Q] I have this sequence here, VQDPAYLRDID [OPRK1_Y369] , and I need its recorded phosphorylation enrichment.
[A] 0.567

[Q] Again, but for NTADYYDLYGG [PTPN11_Y63_G60A]
[A] 5.89

[Q] Again, but for FQLENYCNGGG [INS_Y108_YF]
[A] 0.619

[Q] Again, but for REGAKYVSHGT [ASS1_Y113_A118T]
[A] 0.37

[Q] Again, but for KKKKQYKDKFL [CASK_Y708_YF]
[A] 0.589

[Q] Again, but for TTPAVYARVAK [CTRB2_Y246]
[A] 2.77

[Q] Again, but for PHQTIYGALMI [FGF23_Y70_S71G]
[A] 7.87

[Q] Again, but for FKTPTYPFLLP [PLD2_Y578_YF]
[A] 0.43

[Q] Again, but for SLNEEYTKNKT [MSH2_Y563]
[A] 0.37

[Q] Again, but for CTTIHYNFICN [TP53_Y234_M237I_YF]
[A] 0.454

[Q] Again, but for CGTPTYLAPEV [CHEK2_Y390]
[A] 0.776

[Q] Again, but for MNPPPYSQFLS [FGF23_Y154]
[A] 0.511

[Q] Again, but for HKGASYAFRLS [PTPRD_Y891_V892A]
[A] 0.49

###

Recorded phosphorylation enrichment for the following sequences
Tested on: c-Abl (mouse)
Experiment: phosphorylation enrichment, bacterial display (enrichment ratio); higher = better substrate or ligand; peptides without Tyr show the background
Answer with a bare number; do not write a unit.

Some sequences with recorded phosphorylation enrichment:
Sequence string | phosphorylation enrichment
RDHFGYRQSVT [CD55_Y245_YF] | 0.538
RLLVVYPWNQR [HBB_Y36_T39N] | 0.735
AIGCEYSEINI [SIGLEC12_Y588_Y586C] | 0.928
KDHRDYKYQPR [SOX9_Y172_P170R] | 0.784
VKRNRYKDILP [PTPN12_Y64_K61R] | 0.514
DLDLTSIYPNI [PTEN_Y27_Y27S] | 0.837
GGRIDYIAGLD [APRT_Y60] | 0.582
ESKKHYGYSLY [ANXA3_Y295_F291S] | 0.435
PLQKIYNYNVL [SLC4A1_Y553_T552I] | 0.748
QWLEQYTQAIE [LSP1_Y234] | 10.2

[Q] I have this sequence here, YKWAVYCIIGR [NUP93_Y391_R388W] , and I need its recorded phosphorylation enrichment.
[A] 0.981

[Q] Again, but for TAALWYIFSHT [ENG_Y612_YF]
[A] 1.19

[Q] Again, but for STSYDYCRVPM [BST2_Y8]
[A] 1.11

[Q] Again, but for ITGNGYYFRVF [MYBPC3_Y1135_I1131T]
[A] 0.701

[Q] Again, but for FKTPTYPFLLP [PLD2_Y578_YF]
[A] 0.833

[Q] Again, but for FRRITYHNWRH [PDE6B_Y556_YF]
[A] 0.577

[Q] Again, but for CTTIHYNYRCN [TP53_Y234_M237R]
[A] 0.726

[Q] Again, but for KQRKEYMHRRQ [IQGAP2_Y710]
[A] 0.649

[Q] Again, but for GDYLSYREFHL [ERBIN_Y1107_S1112L]
[A] 15.7

[Q] Again, but for FSMGCYEIFLG [HMGCL_Y198_S201Y_YF]
[A] 1.28

[Q] Again, but for GKVADYIPQLP [GLS_Y249_A254P]
[A] 0.795

[Q] Again, but for HNMPIYEGYAL [ACTA1_Y168_V165M]
[A] 11.3

[Q] Again, but for SLLVVYPWTQR [HBB_Y36_R31S]
[A] 0.602

[Q] Again, but for KENITYMKSEQ [L1TD1_Y24_R27S]
[A] 0.503

[Q] Again, but for SVTCTFSPALN [TP53_Y126_Y126F]
[A] 1.19

[Q] Again, but for CLRIDYERVSQ [DSP_Y1542_R1537C]
[A] 0.96

[Q] Again, but for VTVLDYDKTGK [SYT1_Y365_I368T]
[A] 0.452

[Q] Again, but for ANVIHYFPTQA [SLC25A4_Y81_R80H]
[A] 0.806

[Q] Again, but for RIVEIYSRRLR [GCH1_Y175_Q180R]
[A] 0.692
